From: PubChem BioAssay (NCI)

- Test system: SF-295 CNS
- METHOD SUMMARY: NCI tumour cell line growth inhibition, 48 h
MEASURED PROPERTY: TGI

Input: Consider the molecule shown here: COc1ccc2c(c1)C(=O)/C(=C/c1ccc([N+](=O)[O-])o1)O2 What is its recorded TGI?
Output: 9.89 µM

Input: Consider the molecule shown here: O=C1NC(N2CCCCC2)=N/C1=C\c1ccc(Cl)cc1 What is its recorded TGI?
Output: > 100 µM

Input: Consider the molecule shown here: NS(=O)(=O)CC1CC[CH-]CC1.[Cl-].[Cl-].[Cl-].[Cl-].[Cl-].[Sb+5].c1ccncc1 What is its recorded TGI?
Output: > 100 µM

Input: Consider the molecule shown here: COc1ccc(N=NC(=Nc2ccc(Cl)cc2)c2ccc(N(CCC#N)CCC#N)cc2)cc1 What is its recorded TGI?
Output: > 100 µM

Input: Consider the molecule shown here: O=C1c2ccccc2C2C1C(c1ccccc1)C1(Cc3ccccc3C1=O)C2c1ccccc1 (stereo not given) What is its recorded TGI?
Output: > 100 µM

* * *

Exercise: for every item that follows, state its recorded TGI.
- Tested on: SK-MEL-2 melanoma
- METHOD SUMMARY: NCI tumour cell line growth inhibition, 48 h
Where a SMILES comes first, the peptide text is derived from it. [ ]: non-standard residue; d: D form. The star is where a group is joined. dTle = CC(C)(C)[C@@H](N)C(=O)O; 4Abz = Nc1ccc(C(=O)O)cc1; NHOH = ON*

Input: Consider the compound shown here: CCN(CC)C(=S)SCN1C(=O)c2ccccc2S1(=O)=O What is its recorded TGI?
Output: > 100 µM

Input: Consider the compound shown here: COc1cccc(Nc2nc(N)nc(N)c2N)c1 What is its recorded TGI?
Output: > 100 µM

Input: Consider the compound shown here: COc1ccc(/C(=C/n2ccnc2)C(O)c2ccc(OC)c(OC)c2)cc1OC (stereo unspecified) What is its recorded TGI?
Output: > 100 µM

Input: Consider the compound shown here: CN(C)CCNC(=O)Cn1cnc2cccc([N+](=O)[O-])c2c1=O What is its recorded TGI?
Output: > 100 µM

Input: Consider the compound shown here: CCCCCCCCCCCCCCCCCCNc1nc(=O)n(C2CC(O)C(COP(=O)(O)OCC3OC(n4ccc(N)nc4=O)C(O)C3O)O2)cc1F (stereo unspecified) What is its recorded TGI?
Output: > 100 µM

Input: Consider the compound shown here: O=C1C=CC(=O)N1c1cccc(N2C(=O)C=CC2=O)c1 What is its recorded TGI?
Output: 5.55 µM

Input: Consider the compound shown here: COC(=O)C1Cc2ccc3c(c2C1=O)CCCC3 (stereo unspecified) What is its recorded TGI?
Output: > 100 µM

Input: Consider the compound shown here: Cc1cccc2c1CCC21OC(=O)c2c1ccc1ccccc21 (stereo unspecified) What is its recorded TGI?
Output: 62.3 µM

Input: Consider the compound shown here: CC1=C(/C=C/C(C)=C/C=C/C(C)=C/C(=O)O)C(C)(C)CCC1 What is its recorded TGI?
Output: 48.8 µM

Input: Consider the compound shown here: CCCCNC(=O)C1C2CCC(O2)C1C(=O)O (stereo unspecified) What is its recorded TGI?
Output: 54.8 µM

Input: Consider the compound shown here: Cc1ccc(OCC2OC(n3cnc4c(Cl)nc(Cl)nc43)CC2Oc2ccc(C)cc2)cc1 (stereo unspecified) What is its recorded TGI?
Output: 5.26 µM

Input: Consider the compound shown here: Oc1cc(N2CCCC2)ccc1/C=N/N1C(=S)N(c2ccccc2)C(=Nc2ccccc2)C1=Nc1ccccc1 What is its recorded TGI?
Output: > 100 µM

Input: Consider the compound shown here: C=C(CO)[C@@H]1CC[C@]2(COC3CCCCO3)CC[C@]3(C)[C@H](CC[C@@H]4[C@@]5(C)C=C(C=O)C(=O)C(C)(C)[C@@H]5CC[C@]43C)[C@@H]12 (stereo partly specified) What is its recorded TGI?
Output: 1.82 µM

Input: Consider the compound shown here: CCNC12CCC(C1)C(C)(C)C2=O (stereo unspecified) What is its recorded TGI?
Output: > 100 µM

Input: Consider the compound shown here: CN(C(=O)C1=CCC2(CC1)OCCO2)c1ccccc1I What is its recorded TGI?
Output: > 100 µM

Input: Consider the compound shown here: CCS(=O)(=O)CCn1c(=O)c2c(ncn2C)n(C)c1=O What is its recorded TGI?
Output: > 100 µM

Input: Consider the compound shown here: CCOC(=O)c1cnc2sc3ccc4ccccc4c3n2c1=O What is its recorded TGI?
Output: > 100 µM

Input: Consider the compound shown here: ON[C@H]1C[C@@H](n2cnc3c(NC4CC4)ncnc32)[C@H](O)[C@@H]1O What is its recorded TGI?
Output: > 100 µM

Input: Consider the compound shown here: C[C@@H](NC(=O)[C@H](NC(=O)[C@@H]1CCCN1C(=O)CNC(=O)c1ccc(N)cc1)C(C)(C)C)C(=O)NO (H-[4Abz]GP[dTle][dA]-{NHOH}) What is its recorded TGI?
Output: > 100 µM

Input: Consider the compound shown here: ONC1=Nc2ccccc2C(=S)N2CSCC12 (stereo unspecified) What is its recorded TGI?
Output: > 100 µM

Input: Consider the compound shown here: COc1cc(-c2csc(NC(=O)Nc3ccc(C(F)(F)F)cc3)n2)cc(OC)c1OC What is its recorded TGI?
Output: 5.81 µM

* * *

- System: T-47D breast
- METHOD SUMMARY: NCI tumour cell line growth inhibition, 48 h
MEASURED PROPERTY: TGI

Input: Quick check: TGI on T-47D breast, item CC(C)C[C@H](NC(=O)[C@H](Cc1ccc(F)cc1)NC(=O)c1ccccn1)B(O)O ?
Output: < 0.01 µM

Input: Quick check: TGI on T-47D breast, item CN1CCN(c2ccc(NC(=O)c3cncnc3Nc3ccc(OCc4ccccn4)c(Cl)c3)cc2)CC1 ?
Output: 7.83 µM

Input: Quick check: TGI on T-47D breast, item CC(C(N)C(=O)NC(C(=O)O)C1OC(n2ccc(=O)[nH]c2=O)C(O)C1O)C(O)c1ccc(O)cn1 (stereo unspecified) ?
Output: > 100 µM

Input: Quick check: TGI on T-47D breast, item Oc1cc(N2CCCC2)ccc1/C=N/N1C(=S)N(c2ccccc2)C(=Nc2ccccc2)C1=Nc1ccccc1 ?
Output: > 100 µM

Input: Quick check: TGI on T-47D breast, item C=C1C(=O)O[C@H]2[C@H]1CC/C(COC(=O)C(C)c1ccc(CC(C)C)cc1)=C\CC[C@@]1(C)O[C@@H]21 (stereo partly specified) ?
Output: 4.43 µM

Input: Quick check: TGI on T-47D breast, item ONC1=Nc2ccccc2C(=S)N2CSCC12 (stereo unspecified) ?
Output: > 100 µM

* * *

Exercise: for every item that follows, state its recorded TGI.
- Tested on: HCT-15 colon
- METHOD SUMMARY: NCI tumour cell line growth inhibition, 48 h
Where a SMILES comes first, the peptide text is derived from it. [ ]: non-standard residue; d: D form. The star is where a group is joined. dTle = CC(C)(C)[C@@H](N)C(=O)O; 4Abz = Nc1ccc(C(=O)O)cc1; NHOH = ON*

Input: Consider the molecule shown here: N#Cc1c(N)nc(N2CCOCC2)c(C#N)c1-c1ccccn1 What is its recorded TGI?
Output: > 100 µM

Input: Consider the molecule shown here: CCOC(=O)c1c(C)n(C)c2c1cc(O)c1[nH]c3c(c12)CCCC3 What is its recorded TGI?
Output: > 100 µM

Input: Consider the molecule shown here: N#Cc1cc(S(=O)(=O)Nc2nnc(-c3ccccc3)c(-c3ccccc3)n2)c(SCc2ccccc2)cc1Cl What is its recorded TGI?
Output: 33.3 µM

Input: Consider the molecule shown here: C=C(CO)[C@@H]1CC[C@]2(COC3CCCCO3)CC[C@]3(C)[C@H](CC[C@@H]4[C@@]5(C)C=C(C=O)C(=O)C(C)(C)[C@@H]5CC[C@]43C)[C@@H]12 (stereo partly drawn) What is its recorded TGI?
Output: 0.718 µM

Input: Consider the molecule shown here: C[C@@H](NC(=O)[C@H](NC(=O)[C@@H]1CCCN1C(=O)CNC(=O)c1ccc(N)cc1)C(C)(C)C)C(=O)NO (H-[4Abz]GP[dTle][dA]-{NHOH}) What is its recorded TGI?
Output: > 100 µM

Input: Consider the molecule shown here: Oc1c(Cl)cc(Cl)cc1C(c1cc(Cl)cc(Cl)c1O)C(Cl)(Cl)Cl What is its recorded TGI?
Output: 13.8 µM

Input: Consider the molecule shown here: O=C1c2ccccc2C(=O)c2c(Nc3cc4c5c(ccc6c7ccc8c9c(cc(Nc%10cccc%11c%10C(=O)c%10ccccc%10C%11=O)c(c3c56)c97)-c3ccccc3C8=O)C(=O)c3ccccc3-4)cccc21 What is its recorded TGI?
Output: > 100 µM

Input: Consider the molecule shown here: C[C@]12CC[C@@H]3c4ccc(O)cc4CC[C@H]3[C@@H]1CC[C@@H]2OC(=O)CCc1ccccc1 What is its recorded TGI?
Output: 33 µM

Input: Consider the molecule shown here: O=c1[nH]nc(-c2ccccc2)n1/N=C/c1ccccc1Cl What is its recorded TGI?
Output: > 100 µM

Input: Consider the molecule shown here: ONC1=Nc2ccccc2C(=S)N2CSCC12 (stereo not drawn) What is its recorded TGI?
Output: > 100 µM

Input: Consider the molecule shown here: COc1ccc(/C=C2\CCC(CCN(C)C)(C3=CCCC3)C2=O)cc1Br (stereo not drawn) What is its recorded TGI?
Output: 15.5 µM

Input: Consider the molecule shown here: O=C1c2ccccc2C(=O)C1C(c1ccc(F)cc1)C1C(=O)c2ccccc2C1=O What is its recorded TGI?
Output: > 100 µM

Input: Consider the molecule shown here: CC(NC(=O)c1ccc(NP(=O)(OCc2ccc([N+](=O)[O-])o2)N(C)CCCCCl)cc1)c1ccc(OCC2CCCCC2)c(C(N)=O)c1 (stereo not drawn) What is its recorded TGI?
Output: > 100 µM

Input: Consider the molecule shown here: O=C1c2c(ccc3c2CCC3)CC12Cc1ccccc1C2 What is its recorded TGI?
Output: > 100 µM

Input: Consider the molecule shown here: COc1cc2c(cc1OC)CC1c3cc(OC)c(OC)cc3CCN1CC2 (stereo not drawn) What is its recorded TGI?
Output: > 100 µM

Input: Consider the molecule shown here: CCS(=O)(=O)CCn1c(=O)c2c(ncn2C)n(C)c1=O What is its recorded TGI?
Output: > 100 µM

Input: Consider the molecule shown here: O=C1NNC2NC(=O)C3(NN2C1=O)c1ccccc1-c1ccccc13 (stereo not drawn) What is its recorded TGI?
Output: > 100 µM

Input: Consider the molecule shown here: CCOC(=O)c1cnc2c(ccc3ncccc32)c1NCCCN(CC)CC What is its recorded TGI?
Output: > 100 µM

Input: Consider the molecule shown here: COC1(OC)C=CC2C1C1C=CC2C1(OC)OC (stereo not drawn) What is its recorded TGI?
Output: > 100 µM

Input: Consider the molecule shown here: O=c1cc(-c2ccco2)[nH]c2cc3c(cc12)OCO3 What is its recorded TGI?
Output: > 100 µM

Input: Consider the molecule shown here: COc1cc(-c2csc(NC(=O)Nc3ccc(C(F)(F)F)cc3)n2)cc(OC)c1OC What is its recorded TGI?
Output: 4.09 µM

Input: Consider the molecule shown here: O=C(c1ccccc1)C1C(c2ccccc2)N1S(=O)(=O)c1ccccc1 (stereo not drawn) What is its recorded TGI?
Output: > 100 µM

Input: Consider the molecule shown here: O=S1(=O)OCCOS(=O)(=O)C1Cc1cccc2ccccc12 What is its recorded TGI?
Output: 87.1 µM

Input: Consider the molecule shown here: CN(Cc1cc(Br)cc(Br)c1O)Cc1c(O)ccc2ccccc12 What is its recorded TGI?
Output: > 100 µM

Input: Consider the molecule shown here: CCOC(=O)c1cc(-c2ccccc2)[nH]c1N/N=C/c1ccc(Cl)cc1 What is its recorded TGI?
Output: > 100 µM

Input: Consider the molecule shown here: O=C1C2C(C(=O)N1c1ccccc1)C1([N+](=O)[O-])C=C3c4ccccc4N(C(=O)c4ccccc4)C32C2C(=O)N(c3ccccc3)C(=O)C21 (stereo not drawn) What is its recorded TGI?
Output: > 100 µM

Input: Consider the molecule shown here: CSc1snc2sc3c(Cl)nnnc3c12 What is its recorded TGI?
Output: 24.9 µM

Input: Consider the molecule shown here: NC1=NN(c2ccccc2)C(=O)C1C(=O)C(=O)Nc1nccs1 (stereo not drawn) What is its recorded TGI?
Output: > 100 µM

Input: Consider the molecule shown here: CC(C)=CCC/C(C)=C\CCC1(C)OC(=O)C2CC21 (stereo not drawn) What is its recorded TGI?
Output: > 100 µM

Input: Consider the molecule shown here: COC(=O)C1=C(C)NC(C)=C(C(=O)OC)C1c1ccc(N=O)cc1 What is its recorded TGI?
Output: 23.9 µM

Input: Consider the molecule shown here: CC(CN(C)C)Oc1ccccc1NC1=C(Cl)C(=O)C(Nc2ccccc2OC(C)CN(C)C)=C(Cl)C1=O (stereo not drawn) What is its recorded TGI?
Output: 0.375 µM

Input: Consider the molecule shown here: CCCCCCCCCCCCCCCCCCNc1nc(=O)n(C2CC(O)C(COP(=O)(O)OCC3OC(n4ccc(N)nc4=O)C(O)C3O)O2)cc1F (stereo not drawn) What is its recorded TGI?
Output: 38 µM

Input: Consider the molecule shown here: CC(=O)c1c(CO[N+](=O)[O-])n([O-])c2ccccc2[n+]1=O What is its recorded TGI?
Output: > 100 µM

Input: Consider the molecule shown here: COC(=O)C(C(=O)C(=O)Nc1cccc([N+](=O)[O-])c1)c1nc2ccc([N+](=O)[O-])cc2[nH]c1=O (stereo not drawn) What is its recorded TGI?
Output: > 100 µM

Input: Consider the molecule shown here: C=C1C(OC(=O)/C=C/c2ccccc2)CC(OC(C)=O)C2(C)C1CC1CC(OC(C)=O)C(C)=C(C(OC(C)=O)C2OC(C)=O)C1(C)C (stereo not drawn) What is its recorded TGI?
Output: > 100 µM

Input: Consider the molecule shown here: CCOC(=O)c1cnc2sc3ccc4ccccc4c3n2c1=O What is its recorded TGI?
Output: > 100 µM

Input: Consider the molecule shown here: COc1cc2nccc(Oc3ccc(NC(=O)Nc4cc(C)on4)c(Cl)c3)c2cc1OC What is its recorded TGI?
Output: > 100 µM

Input: Consider the molecule shown here: Cc1cc(N2CCOCC2)nc(N(CCCNc2ccnc3cc(Cl)ccc23)Cc2ccco2)n1 What is its recorded TGI?
Output: 11.6 µM
